Target: HLA-A*02:01
Assay: IEDB peptide-MHC binding, purified MHC/direct/fluorescence; filed as Kd, often an IC50 or EC50 that approximates it; bounds were set here for any values at or beyond the usual limits of such assays
Details: source organism: Reston ebolavirus - Reston
reported_metric: pKd
Lab note — pKd values are minus log10 of concentrations in M.

Noted for MVAKYDLLV : its pKd reads 7.85

---

Molecular target: HLA-A*68:02
Test: IEDB peptide-MHC binding, purified MHC/competitive/fluorescence; filed as Kd, often an IC50 or EC50 that approximates it; bounds were set here for any values at or beyond the usual limits of such assays
Details: source organism: Entamoeba histolytica HM-1:IMSS
reported_metric: Kd (nM)
Give the number; nM is assumed, so skip it.

Recorded result, MVPKSFTYS , Kd: 76.2
